# Protocol text: protein stability index of a GFP-peptide fusion (GPS, HEK-293T) (PSI 1-6); higher = more stable;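 also: 24-mer peptide tiles fused after GFP, lentivirally expressed, FACS-sorted into six equal bins by GFP/DsRed ratio, decoded by Illumina sequencing, PSI is the read-weighted mean bin number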
# Conditions: treatment: MLN4924 1 uM, 8 h; c terminus: a fixed tail appended
Consider the following partition of reported protein stability index into named classes: L = under 3, M = from 3 up to 4, H = 4 and over

Example entries begin here.
# input # bin lookup: classify EEKSKQFLDLMETIDKQREEMAKS [LRRC45] by its protein stability index
# output H

# input // bin(item) where item = KATNVVMNYSEIESKVREATNDDP [CLINT1]
# output H

# input Using the reported protein stability index, which band applies to SIEYDSEPFGKERDAAIKKLATEA [CRY1] ?
# output H

New cases:
# input State the band of CEYETRLPGNHSTSQEIFRQRFRH [ZNF232]
# output M
